- system.under.test: SIRT1 (Homo sapiens)
- Sequence (Q96EB6 whole entry): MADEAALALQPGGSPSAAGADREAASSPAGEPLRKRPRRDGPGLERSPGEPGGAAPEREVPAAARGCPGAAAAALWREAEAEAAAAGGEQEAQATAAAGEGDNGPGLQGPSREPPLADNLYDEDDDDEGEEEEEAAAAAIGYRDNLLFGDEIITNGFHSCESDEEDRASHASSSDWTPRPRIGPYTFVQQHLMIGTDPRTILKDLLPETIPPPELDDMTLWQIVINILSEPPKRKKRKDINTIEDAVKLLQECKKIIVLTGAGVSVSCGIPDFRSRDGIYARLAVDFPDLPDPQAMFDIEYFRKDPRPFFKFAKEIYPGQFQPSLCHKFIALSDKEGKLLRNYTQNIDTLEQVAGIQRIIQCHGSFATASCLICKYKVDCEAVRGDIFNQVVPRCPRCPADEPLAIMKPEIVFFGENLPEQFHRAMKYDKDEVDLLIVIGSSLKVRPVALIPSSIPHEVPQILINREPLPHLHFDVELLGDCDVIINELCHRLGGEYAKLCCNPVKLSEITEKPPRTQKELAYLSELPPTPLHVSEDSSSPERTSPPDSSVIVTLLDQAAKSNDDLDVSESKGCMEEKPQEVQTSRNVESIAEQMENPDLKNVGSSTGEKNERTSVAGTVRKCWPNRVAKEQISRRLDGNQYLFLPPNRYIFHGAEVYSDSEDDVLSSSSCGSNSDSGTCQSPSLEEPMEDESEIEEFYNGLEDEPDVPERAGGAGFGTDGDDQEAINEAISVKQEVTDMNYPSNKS
- assay.overview: Trp mass spectrometry assay of SIRT1 activation
- Assay type: biochemical
- condition.notes: Trp mass spectrometry assay; EC1.5 = concentration of test compound that results in 150% activation of SIRT1
endpoint.label: Tryp AVG EC1.5 (μM)

>>> observed_measurement("O=C(NCCc1ccncc1)N1c2nc(-c3cccc(C(F)(F)F)c3)ccc2N2CC[C@H]1C2 [Example 613]")
"B (B (EC1.5 1-25 μM))"
>>> observed_measurement("N#Cc1ccccc1-c1ccc2c(n1)N(C(=O)Nc1cnccn1)[C@H]1CCCN2C1 [Example 450]")
"B (B (EC1.5 1-25 μM))"
>>> observed_measurement("Cc1cc(-c2ccc3c(n2)N(C(=O)Nc2cccnc2)[C@H]2CCN3C2)ccn1 [Example 498]")
"A (A (EC1.5<1 μM))"
>>> observed_measurement("COc1cncc(NC(=O)N2c3nc(-c4ccnc(C)c4)ccc3N3CC[C@H]2C3)n1 [Example 499]")
"A (A (EC1.5<1 μM))"
>>> observed_measurement("NCc1cn(-c2cccc(NC(=O)N3c4nc(-c5cccc(C(F)(F)F)c5)ccc4N4CC[C@H]3C4)c2)nn1 [Example 606]")
"A (A (EC1.5<1 μM))"
>>> observed_measurement("CC(=O)O[C@@H]1CN2C[C@H]1N(C(=O)Nc1ccccn1)c1nc(-c3cccc(C(F)(F)F)c3)ccc12 [Example 602]")
"B (B (EC1.5 1-25 μM))"

Then there is this compound:
Entry under review: NCc1ccc(NC(=O)N2c3nc(-c4cccc(C(F)(F)F)c4)ccc3N3CC[C@H]2C3)cc1 [Example 429] . Reported Tryp AVG EC1.5 (μM)?
B (B (EC1.5 1-25 μM))
